Target: full length SGK1 (Homo sapiens, UniProt O00141)
Construct: 125 μM full length SGK1 (Life Technologies Part #PR7358A); purchased Life Technologies PR7358A
Sequence (O00141 whole entry): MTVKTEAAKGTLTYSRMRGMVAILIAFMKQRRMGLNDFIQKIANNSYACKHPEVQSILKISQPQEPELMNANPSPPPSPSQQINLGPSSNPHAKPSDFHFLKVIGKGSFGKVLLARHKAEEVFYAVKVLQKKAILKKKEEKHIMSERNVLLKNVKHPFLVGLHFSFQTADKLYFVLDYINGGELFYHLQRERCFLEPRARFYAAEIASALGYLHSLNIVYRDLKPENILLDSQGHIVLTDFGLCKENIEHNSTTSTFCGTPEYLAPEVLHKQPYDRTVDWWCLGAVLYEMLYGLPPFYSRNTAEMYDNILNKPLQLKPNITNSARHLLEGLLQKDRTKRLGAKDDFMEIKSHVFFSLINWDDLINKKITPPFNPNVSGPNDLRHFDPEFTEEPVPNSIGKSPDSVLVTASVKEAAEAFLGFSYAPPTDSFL
Experiment: SGK1 inhibition Assay A (Caliper LabChip electrophoretic separation of fluorescent peptide substrate and phosphorylated product)
Type: biochemical
Details: Assay A; 20 μM ATP, 40 min incubation; read-out: SGK1 IC50
Structures can show the parent of a compound that is named as a salt.
Record form. Attribute: pIC50. Fill in for each entry.
Quick note: pIC50 values are minus log10 of concentrations in mol/L.

IN: # query: pIC50 of entry CN(C)CCOc1cc(Cl)sc1C(=O)N[C@@H]1CCCN(c2cc(C3=CCNCC3)n3ncnc(N)c23)C1 [Example 172, TFA]
OUT: 6.46

IN: Further, for CS(=O)(=O)c1ccc(-c2cc(N3CCC[C@@H](NC(=O)c4cccc(C(F)(F)F)c4)C3)c3c(N)ncnn23)cc1 [Example 24] ?
OUT: 7.39

IN: Cool, now COC(=O)N1CC=C(c2cc(N3CCC[C@@H](NC(=O)c4cc5cc(F)ccc5[nH]4)C3)c3c(N)ncnn23)C1 [Example 518]
OUT: 6.86

IN: And then CS(=O)(=O)c1ccc(-c2cc(N3CCC[C@@H](NC(=O)c4ccnc(C#N)c4)C3)c3c(N)ncnn23)cc1 [Example 47, TFA] , what is it?
OUT: 7.36

* * *

Kindly state IC50 for each of the entries shown.
Target: full length SGK1 (Homo sapiens)
Construct: 125 μM full length SGK1 (Life Technologies Part #PR7358A); purchased Life Technologies PR7358A
Assay: SGK1 inhibition Assay A (Caliper LabChip electrophoretic separation of fluorescent peptide substrate and phosphorylated product)
Assay type: biochemical
Settings: Assay A; 20 μM ATP, 40 min incubation; read-out: SGK1 IC50
// note: answer is a bare numeric in nM

IN: Dear colleague, I am looking for the recorded IC50 of the following molecule: CC(=O)N1CC=C(c2cc(N3CCC[C@@H](NC(=O)c4cccc(N5C[C@H]6CC[C@@H](C5)N6)n4)C3)c3c(N)ncnn23)C1 [Example 814]
OUT: 9

IN: Next record, please: CC(=O)N1CC=C(c2cc(N3CCC[C@@H](NC(=O)c4sc(Cl)cc4OC4CCNCC4F)C3)c3c(N)ncnn23)C1 (single isomer, unassigned) [Example 600D]
OUT: 19

IN: One more molecule: COCCNC(=O)c1ccc(-c2cc(N3CCC[C@@H](NC(=O)c4ccc(Cl)s4)C3)c3c(N)ncnn23)cc1 [Example 224]
OUT: 11

* * *

Please respond with reported IC50 for every item in the list.
Target: full length SGK1 (Homo sapiens, UniProt O00141)
Construct: 125 μM full length SGK1 (Life Technologies Part #PR7358A); purchased Life Technologies PR7358A
Test: SGK1 inhibition Assay A (Caliper LabChip electrophoretic separation of fluorescent peptide substrate and phosphorylated product)
Format: biochemical
Conditions: Assay A; 20 μM ATP, 40 min incubation; read-out: SGK1 IC50
Structures can show the parent of a compound that is named as a salt.
Could you give the number and then its unit, please?

IN: // map CS(=O)(=O)c1ccc(-c2cc(N3CCC[C@@H](NC(=O)c4ccn[nH]4)C3)c3c(N)ncnn23)cc1 to recorded IC50 (system: full length SGK1 (Homo sapiens, UniProt O00141))
OUT: 22 nM

IN: // same read-out, input: N#Cc1ccc(C(=O)N[C@@H]2CCCN(c3cc(C#N)n4ncnc(N)c34)C2)s1
OUT: 80 nM

IN: Would you kindly repeat that for CC(=O)N1CC=C(c2cc(N3CCC[C@@H](NC(=O)c4cc(N5CCOCC5)cs4)C3)c3c(N)ncnn23)C1 ?
OUT: 28 nM

IN: Try NC(=O)c1ccc(-c2cc(N3CCC[C@@H](NC(=O)c4ccc(Cl)s4)C3)c3c(N)ncnn23)cc1F [Example 139, TFA] next.
OUT: 3 nM

IN: Can you check CC(=O)N1CCC(Oc2cc(C(F)F)sc2C(=O)N[C@@H]2CCCN(c3cc(-c4ccc(C#N)nc4)n4ncnc(N)c34)C2)CC1 next?
OUT: 29 nM

IN: Could you do the same for N#Cc1ccc(-c2cc(N3CCC[C@@H](NC(=O)c4sc(Cl)cc4OCC(=O)N4CCCC4)C3)c3c(N)ncnn23)cn1 , please?
OUT: 13 nM

IN: And what about the compound CC1(NC(=O)c2ccc(Cl)s2)CCCN(c2cc(-c3ccc(S(C)(=O)=O)cc3)n3ncnc(N)c23)C1 (stereo not shown) [Example 145, TFA] ?
OUT: 765 nM
